Reference source: patent US20110177071A1

# STUDY_TARGET: T1, human CD86-murine Ig fusion protein (human)
# T1 construct: Bought (Ancell #509-820); also called hCD86-mIg
# T1 chain: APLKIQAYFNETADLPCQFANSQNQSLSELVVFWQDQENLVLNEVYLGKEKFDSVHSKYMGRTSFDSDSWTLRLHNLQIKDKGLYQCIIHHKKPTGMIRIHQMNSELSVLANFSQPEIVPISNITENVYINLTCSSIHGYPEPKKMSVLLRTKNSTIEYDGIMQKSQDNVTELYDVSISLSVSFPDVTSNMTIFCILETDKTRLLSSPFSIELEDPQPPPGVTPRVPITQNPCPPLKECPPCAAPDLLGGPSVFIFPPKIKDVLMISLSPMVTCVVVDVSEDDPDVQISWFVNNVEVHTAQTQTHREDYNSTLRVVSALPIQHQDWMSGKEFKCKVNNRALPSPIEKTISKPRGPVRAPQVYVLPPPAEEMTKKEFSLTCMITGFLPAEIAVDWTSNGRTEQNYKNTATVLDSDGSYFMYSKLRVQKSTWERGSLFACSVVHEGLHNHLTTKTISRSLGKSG
# EXPERIMENTAL_DETAILS: SPR Biacore, hCD86-mIg captured
# Protocol: All Biacore™ analyses were performed on a Biacore™ 2000 system (GE Healthcare) at room temperature (RT, 25° C.). HBS-EP buffer (10 mM HEPES (pH 7.4), 150 mM NaCl, 3 mM EDTA, 0.005% surfactant P20) was used as the flow buffer for all experiments. Rabbit anti-mouse IgG antibody (GE Healthcare, #BR-1005-14) was immobilized on CM5 sensor chips (GE Healthcare, #BR-1000-14) according to the manufacturer's protocol. […]
OBSERVABLE: Kd

>  <BINDER>
D3-50-IgG2 (Fc fusion) MHVAQPAVVLASSRGIASFVCEYASPGKANEVRVTVLRQADSQVTEVCAMTYMKGDELTFLDDPICTGTFSGNQVNLTIQGLRAMDTGLYICKVELMYPPPYYLGIGNGTQIYVIDPEPCPDSDERKCCVECPPCPAPPVAGPSVFLFPPKPKDTLMISRTPEVTCVVVDVSHEDPEVQFNWYVDGVEVHNAKTKPREEQFNSTFRVVSVLTVVHQDWLNGKEYKCKVSNKGLPAPIEKTISKTKGQPREPQVYTLPPSREEMTKNQVSLTCLVKGFYPSDIAVEWESNGQPENNYKTTPPMLDSDGSFFLYSKLTVDKSRWQQGNVFSCSVMHEALHNHYTQKSLSLSPG

>  <RESULT>
0.131 to 0.262 nM

$$$$
>  <BINDER>
D6-IgG2 (Fc fusion) MHVAQPAVVLASSRGIASFVCEYASPGKATEIRVTVLRQADSQVTEVCAMTYMMGDELTFLDDPICTGTFSGNQVNLTIQGLRAMDTGLYICKVELMYPPPYYLGIGNGTQIYVIDPEPCPDSDERKCCVECPPCPAPPVAGPSVFLFPPKPKDTLMISRTPEVTCVVVDVSHEDPEVQFNWYVDGVEVHNAKTKPREEQFNSTFRVVSVLTVVHQDWLNGKEYKCKVSNKGLPAPIEKTISKTKGQPREPQVYTLPPSREEMTKNQVSLTCLVKGFYPSDIAVEWESNGQPENNYKTTPPMLDSDGSFFLYSKLTVDKSRWQQGNVFSCSVMHEALHNHYTQKSLSLSPG

>  <RESULT>
0.523 to 2.65 nM

$$$$
>  <BINDER>
D3-29-IgG2 (Fc fusion) MHVAQPAVVLASSRGIASFVCEYASPGKANEIRVTVLRQADSQVTEVCAMTYMKGDELTFLDDPSCTGTFSGNQVNLTIQGLRAMDTGLYICKVELMYPPPYYLGIGNGTQIYVIDPEPCPDSDERKCCVECPPCPAPPVAGPSVFLFPPKPKDTLMISRTPEVTCVVVDVSHEDPEVQFNWYVDGVEVHNAKTKPREEQFNSTFRVVSVLTVVHQDWLNGKEYKCKVSNKGLPAPIEKTISKTKGQPREPQVYTLPPSREEMTKNQVSLTCLVKGFYPSDIAVEWESNGQPENNYKTTPPMLDSDGSFFLYSKLTVDKSRWQQGNVFSCSVMHEALHNHYTQKSLSLSPG

>  <RESULT>
< 0.131 nM

$$$$
>  <BINDER>
D28-IgG2 (Fc fusion) MHVAQPAVVLASSRGIASFVCEYEAPHKANEVRVTVLRQAGSQVTEVCAMTYMMEDELTFLDDPSCTGTFSGNQVNLTIQGLRAADTGLYICKVELMYPPPYYLGLGNGTQIYVIDPEPCPDSDERKCCVECPPCPAPPVAGPSVFLFPPKPKDTLMISRTPEVTCVVVDVSHEDPEVQFNWYVDGVEVHNAKTKPREEQFNSTFRVVSVLTVVHQDWLNGKEYKCKVSNKGLPAPIEKTISKTKGQPREPQVYTLPPSREEMTKNQVSLTCLVKGFYPSDIAVEWESNGQPENNYKTTPPMLDSDGSFFLYSKLTVDKSRWQQGNVFSCSVMHEALHNHYTQKSLSLSPG

>  <RESULT>
< 0.131 nM

$$$$
